biological target: Cytochrome P450 2C19 (Homo sapiens) (UniProt P33261); experiment: blockers of cytochrome P450 2C19 activity – biochemical, luminescence, ADME assay, primary screen (AID 778); conditions: CYP2C19 Supersomes, luciferin-H EGE luminescence, 30 min; at 5 µM
Sequence (P33261 whole entry, looked up): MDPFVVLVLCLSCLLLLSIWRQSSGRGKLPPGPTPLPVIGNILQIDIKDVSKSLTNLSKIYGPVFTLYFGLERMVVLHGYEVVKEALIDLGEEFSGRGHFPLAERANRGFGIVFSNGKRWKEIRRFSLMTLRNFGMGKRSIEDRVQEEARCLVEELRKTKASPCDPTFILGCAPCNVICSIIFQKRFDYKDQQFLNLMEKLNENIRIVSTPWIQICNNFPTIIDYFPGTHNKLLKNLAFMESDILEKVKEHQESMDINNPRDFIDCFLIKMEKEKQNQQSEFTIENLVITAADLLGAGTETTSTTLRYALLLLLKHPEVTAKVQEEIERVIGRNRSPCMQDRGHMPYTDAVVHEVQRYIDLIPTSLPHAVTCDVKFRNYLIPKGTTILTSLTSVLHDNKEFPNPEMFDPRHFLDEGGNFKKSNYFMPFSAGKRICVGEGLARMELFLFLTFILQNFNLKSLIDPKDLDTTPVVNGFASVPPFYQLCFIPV
Among all 96,000 compounds or so, about 20,000 (21%) were called active.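 The calls were made as follows: active = CYP2C19 inhibition above a set limit at 5 µM in the primary screen (cut at about 50% in these data); inactive = the rest.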 The list is a sample of the results.
Form entry, call: pick from active, inactive

Each molecule tested received a call. Report the one for CCOC(=O)C1=C(CNC2CCCCC2)NC(=O)NC1c1cc(C)ccc1C (stereo unspecified) .
active

Each molecule tested received a call. Report the one for Cc1cc(NC(=O)CCC(=O)N(c2ccccc2)C(C(=O)NC2CCCC2)c2ccncc2)no1 (stereo unspecified) .
inactive

Each molecule tested received a call. Report the one for `O=C(CSc1nnc(-c2cccs2)n1Cc1ccco1)c1ccc2c(c1)OCO2` .
active

Each molecule tested received a call. Report the one for Cc1cc(NC(=O)CCC(=O)N(c2cccc(F)c2)C(C(=O)NC2CCCC2)c2ccncc2)no1 (stereo unspecified) .
active

Each molecule tested received a call. Report the one for `Cc1ccc(NC(=O)CSc2nnc(-c3cnccn3)n2Cc2ccco2)cc1C` .
inactive

Each molecule tested received a call. Report the one for `Cc1c(Nc2nc3ccccc3nc2NS(=O)(=O)c2cccs2)c(=O)n(-c2ccccc2)n1C` .
inactive

Each molecule tested received a call. Report the one for `CCCn1c(SCC(=O)c2ccc3c(c2)OCCO3)nnc1C(C)C` .
inactive

Each molecule tested received a call. Report the one for `COC(=O)c1ccc(NC(=O)CSc2nnc(-c3ccncc3)n2C)cc1` .
active

Each molecule tested received a call. Report the one for `CCOC(=O)c1[nH]cnc1C(=O)NC1CCCCC1` .
inactive
